B1: Dystrobrevin alpha, residues 235 to 294; numbered along this chain, Q9Y4J8 (parent)
chain: ENVFHPVECSYCHSESMMGFRYRCQQCHNYQLCQDCFWRGHAGGSHSNQHQMKEYTSWKS

# Variants of: B1
# protocol.text: abundance fitness (aPCA) (normalised: wild type 0, dead -1); higher = more abundant; growth selection in yeast, the domain comes from the species named
# conditions: Homo sapiens
# label = met if abundance fitness >= -0.1 else not met

>>> class_label("C27W")
"not met"
>>> class_label("V3S")
"met"
>>> class_label("F4I")
"met"
>>> class_label("S10L")
"not met"
>>> class_label("S14V")
"met"
>>> class_label("Q25V")
"met"
>>> class_label("E15G")
"not met"
>>> class_label("K53S")
"not met"
>>> class_label("R21K")
"met"
>>> class_label("H28F")
"not met"
